- System under test: Luciferin 4-monooxygenase (Photinus pyralis) (UniProt P08659)
- Sequence (P08659 whole entry, looked up): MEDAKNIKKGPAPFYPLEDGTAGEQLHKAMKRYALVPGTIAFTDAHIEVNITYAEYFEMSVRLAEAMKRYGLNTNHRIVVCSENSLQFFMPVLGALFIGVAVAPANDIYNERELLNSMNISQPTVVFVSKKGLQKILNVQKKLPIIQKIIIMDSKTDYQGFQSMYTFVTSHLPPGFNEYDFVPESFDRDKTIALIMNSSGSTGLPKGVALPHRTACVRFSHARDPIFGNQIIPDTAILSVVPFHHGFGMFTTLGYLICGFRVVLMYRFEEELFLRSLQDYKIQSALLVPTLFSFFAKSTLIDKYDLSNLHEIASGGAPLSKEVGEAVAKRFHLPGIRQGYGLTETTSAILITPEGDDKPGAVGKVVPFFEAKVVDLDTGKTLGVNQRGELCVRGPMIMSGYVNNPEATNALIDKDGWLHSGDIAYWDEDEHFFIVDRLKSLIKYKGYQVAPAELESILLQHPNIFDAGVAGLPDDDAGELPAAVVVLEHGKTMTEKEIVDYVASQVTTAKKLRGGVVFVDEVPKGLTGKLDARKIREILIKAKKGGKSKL
- Assay protocol: firefly luciferase enzyme inhibitors, primary screen, biochemical, luminescence, purified enzyme, 2006 set (AID 1141);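 also: cell-free assay with purified firefly luciferase at 100 ng per well in PBS; test concentration not given here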
- Measurement conditions: SteadyGlo luminescence, 30 min, higher = more signal, called active from +8 up or from −8 down
Test readout: z-score
// keep it numeric: no unit symbol after the value

I am curious: what z-score value has been reported for CC=CC1=C(CO)[C@H](O)[C@H]2O[C@H]2[C@@H]1O ?
-0.0811

I am curious: what z-score value has been reported for O=C1C=C[C@@H](O)[C@@H]2[C@@H]3C(=O)N(Cc4ccc5c(c4)OCO5)C(=O)[C@@H]3CC[C@@H]12 ?
-0.276

I am curious: what z-score value has been reported for CO[C@@H](C1CCCCC1)[C@@H](C)[C@H](OCc1cccc(Br)c1)[C@@H](C)CO ?
0.158

I am curious: what z-score value has been reported for Cc1ccc2[nH]c3nc(CCCn4ccnc4-c4ccccc4)nnc3c2c1 ?
0.36

I am curious: what z-score value has been reported for O=C1[C@H]2[C@H]3[C@H](O)[C@H](O)CC(=NO[C@@H]4O[C@H](CO)[C@@H](O)[C@H](O)[C@H]4O)[C@H]3CC[C@H]2C(=O)N1C[C@@H]1CCCO1 ?
0.569

I am curious: what z-score value has been reported for O=C1C=C[C@@H](O)[C@@H]2[C@@H]3C(=O)N(Cc4ccccc4)C(=O)[C@@H]3CC[C@@H]12 ?
-0.505

I am curious: what z-score value has been reported for CC(C)=NOC[C@@H](O)[C@H]1O[C@@H]2OC(C)(C)O[C@@H]2[C@H]1O ?
-0.394

I am curious: what z-score value has been reported for CON=C1c2cc(OC)ccc2O[C@H](c2cccc(OC)c2)[C@H]1O ?
-2.9

###

- Tested on: Noggin (protein binding on small-molecule microarray)
- Assay protocol: Noggin binders on small-molecule microarray, primary screen, biochemical, 635/667 nm fluorescence (AID 1095);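 also: score merges 667 nm feature fluorescence with signal to noise over triplicate slides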
- Measurement conditions: 635 nm fluorescence, higher = more signal
For each record, write down the corresponding composite z-score.
// keep it numeric: no unit symbol after the value

I am curious: what composite z-score value has been reported for COc1ccc(OC[C@H]2CN3[C@@H](CC[C@@H](C)[C@@H]3c3ccc(Br)cc3)C(=O)O2)cc1 ?
0.318

I am curious: what composite z-score value has been reported for CC1(C)O[C@H]2OC([C@H](O)CON3C(=O)c4ccccc4C3=O)[C@H](O)[C@H]2O1 (stereo partly drawn) ?
0.441

I am curious: what composite z-score value has been reported for COC(=O)C1=C(C)N(Cc2ccccc2)C2=C3C(=O)OCC[C@@H]3[C@@](O)(C(=O)OC)C(=O)N2[C@@H]1c1ccccc1 ?
0.454

I am curious: what composite z-score value has been reported for CCOC(=O)NN=C1C[C@@H](O)[C@@H](O)[C@@H]2[C@@H]3C(=O)N(c4ccc(F)cc4F)C(=O)[C@@H]3CC[C@H]12 ?
0.555

I am curious: what composite z-score value has been reported for COC(=O)C(C(=O)OC)C1CCCC(=O)C1 (stereo not drawn) ?
0.365

I am curious: what composite z-score value has been reported for CC=CC1=C(CO)[C@H](O)[C@H]2O[C@H]2[C@@H]1O ?
0.59

I am curious: what composite z-score value has been reported for COc1ccc(O[C@H]2C=C[C@@H](C#Cc3ccccc3)O[C@@H]2CO)cc1 ?
1.15

I am curious: what composite z-score value has been reported for CCCNC(=O)OC[C@H]1O[C@H](CCON=C[C@@H](NS(=O)(=O)c2ccc(C)cc2)[C@H](C)C=CCC(=O)OC)C=C[C@@H]1Oc1ccc(OC)cc1 ?
0.0599
